# testedOn: Leucine aminopeptidase (Plasmodium falciparum 3D7)
# Sequence (whole entry): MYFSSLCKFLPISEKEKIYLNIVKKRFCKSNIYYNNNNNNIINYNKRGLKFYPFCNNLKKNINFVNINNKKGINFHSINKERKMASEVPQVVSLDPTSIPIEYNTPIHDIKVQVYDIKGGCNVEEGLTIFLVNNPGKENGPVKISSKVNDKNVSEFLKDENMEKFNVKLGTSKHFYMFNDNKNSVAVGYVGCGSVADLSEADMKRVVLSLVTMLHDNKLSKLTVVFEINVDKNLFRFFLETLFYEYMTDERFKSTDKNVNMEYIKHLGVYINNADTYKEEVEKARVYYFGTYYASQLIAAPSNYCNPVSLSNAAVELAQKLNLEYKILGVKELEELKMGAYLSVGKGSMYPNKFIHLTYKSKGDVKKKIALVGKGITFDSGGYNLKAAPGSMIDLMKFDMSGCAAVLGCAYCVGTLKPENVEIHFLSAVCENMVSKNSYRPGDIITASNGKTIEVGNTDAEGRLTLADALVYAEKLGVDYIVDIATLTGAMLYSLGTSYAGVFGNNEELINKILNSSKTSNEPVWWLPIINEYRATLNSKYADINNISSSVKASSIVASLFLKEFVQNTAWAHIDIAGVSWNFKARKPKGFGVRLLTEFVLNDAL
# assayProcedure: Inhibition of leucyl aminopeptidase activity in Plasmodium falciparum 3D7 at 10 uM using Leu-AMC as a substrate by spectrophotometer
Each entry below lists one item and its recorded inhibition value.
API: value field is a number in %; no unit string.

Some entries whose results are on file:
- compound: "NC(C1CCC1)P(=O)(O)O (racemic)"
  inhibition [%]: 6
- compound: "NC(CCc1ccccc1)P(=O)(O)Oc1ccccc1 (racemic)"
  inhibition [%]: 90
- compound: "NC(CCc1ccccc1)P(=O)(O)O (racemic)"
  inhibition [%]: 93
- compound: "CCC(C)C(N)P(=O)(O)O (stereo in doubt; D28)"
  inhibition [%]: 9
- compound: "CC(C)C(NC(=O)C(N)Cc1ccccc1)P(=O)(O)O (stereo not given)"
  inhibition [%]: 12
- compound: "NC(c1ccc(O)c(O)c1)P(=O)(O)O (racemic)"
  inhibition [%]: 7
- compound: "NC(c1ccc(O)cc1)P(=O)(O)O (racemic)"
  inhibition [%]: 8
- compound: "CCCC(C)C(N)P(=O)(O)O (stereo in doubt; D30)"
  inhibition [%]: 11

Ask: Quick one: give measured inhibition for NC(CC1CCCCC1)P(=O)(O)O (racemic)
Reply: 27

Ask: Quick one: give measured inhibition for N[C@H](C1CCCCC1)P(=O)(O)O
Reply: 8

###

# testedOn: Aminopeptidase N (Sus scrofa, UniProt P15145)
# Sequence (P15145 whole entry): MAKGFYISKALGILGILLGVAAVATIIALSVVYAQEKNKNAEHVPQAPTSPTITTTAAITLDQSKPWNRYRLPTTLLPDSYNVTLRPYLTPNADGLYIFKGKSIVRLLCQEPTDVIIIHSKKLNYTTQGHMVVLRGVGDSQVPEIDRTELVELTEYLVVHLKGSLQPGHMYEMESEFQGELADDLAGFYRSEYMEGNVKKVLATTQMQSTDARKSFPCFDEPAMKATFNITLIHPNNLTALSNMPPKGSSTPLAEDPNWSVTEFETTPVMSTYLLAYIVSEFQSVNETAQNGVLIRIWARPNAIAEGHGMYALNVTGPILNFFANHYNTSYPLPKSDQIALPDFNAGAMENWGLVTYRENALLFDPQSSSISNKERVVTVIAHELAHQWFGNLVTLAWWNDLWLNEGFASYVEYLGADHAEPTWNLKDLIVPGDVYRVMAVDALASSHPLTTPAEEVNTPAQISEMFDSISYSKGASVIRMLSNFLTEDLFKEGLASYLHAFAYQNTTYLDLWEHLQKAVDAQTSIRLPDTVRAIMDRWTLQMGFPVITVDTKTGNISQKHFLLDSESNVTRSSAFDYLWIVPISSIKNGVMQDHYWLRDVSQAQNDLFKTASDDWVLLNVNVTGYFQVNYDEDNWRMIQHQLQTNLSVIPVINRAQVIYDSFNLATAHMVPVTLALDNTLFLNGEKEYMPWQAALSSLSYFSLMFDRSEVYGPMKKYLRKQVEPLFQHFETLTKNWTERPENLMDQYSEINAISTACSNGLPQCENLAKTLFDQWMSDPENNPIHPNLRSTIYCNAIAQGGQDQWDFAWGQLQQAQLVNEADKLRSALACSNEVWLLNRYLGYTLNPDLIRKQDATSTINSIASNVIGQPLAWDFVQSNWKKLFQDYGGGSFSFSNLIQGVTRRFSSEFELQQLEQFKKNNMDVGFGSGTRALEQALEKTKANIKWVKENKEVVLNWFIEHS
Each entry below lists one item and its recorded Ki value.
API: value field is a number in µM; no unit string.

Some entries whose results are on file:
- molecule: "CC(C)C[C@@H](N)P(=O)(O)O"
  displayUnit: "µM"
  Ki: 53
- molecule: "NC(CCC1CCCCC1)P(=O)(O)O (racemic)"
  displayUnit: "µM"
  Ki: 37.1
- molecule: "NC(CCCC1CCCCC1)P(=O)(O)O (racemic)"
  displayUnit: "µM"
  Ki: 41.6
- molecule: "NC(CCCCc1ccccc1)P(=O)(O)O (racemic)"
  displayUnit: "µM"
  Ki: 3.69
- molecule: "N[C@@H](C1CCCCC1)P(=O)(O)O"
  displayUnit: "µM"
  Ki: 161

The record that follows has no Ki shown yet.
Ask: Enter measured Ki, system Aminopeptidase N (Sus scrofa, UniProt P15145), for the molecule shown: NC(CC1CCCCC1)P(=O)(O)O (racemic)
Reply: 54.7

###

# testedOn: Leucine aminopeptidase (Plasmodium falciparum 3D7) (UniProt Q8IL11)
# Sequence (whole entry): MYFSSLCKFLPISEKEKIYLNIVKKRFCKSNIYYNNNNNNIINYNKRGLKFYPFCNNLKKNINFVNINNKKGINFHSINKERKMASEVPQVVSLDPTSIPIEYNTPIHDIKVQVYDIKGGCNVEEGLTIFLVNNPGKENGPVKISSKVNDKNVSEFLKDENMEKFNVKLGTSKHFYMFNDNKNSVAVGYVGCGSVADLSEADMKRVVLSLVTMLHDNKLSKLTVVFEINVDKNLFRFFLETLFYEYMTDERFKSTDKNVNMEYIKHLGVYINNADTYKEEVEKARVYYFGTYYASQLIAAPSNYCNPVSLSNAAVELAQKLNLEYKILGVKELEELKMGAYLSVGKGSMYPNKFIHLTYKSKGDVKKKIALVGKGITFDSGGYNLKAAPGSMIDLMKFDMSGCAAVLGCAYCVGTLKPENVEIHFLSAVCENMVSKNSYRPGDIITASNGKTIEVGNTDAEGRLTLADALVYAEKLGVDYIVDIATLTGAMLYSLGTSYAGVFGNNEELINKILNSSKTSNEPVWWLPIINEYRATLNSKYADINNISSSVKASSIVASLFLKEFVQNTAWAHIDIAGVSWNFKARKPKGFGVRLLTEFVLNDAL
# assayProcedure: Inhibition of leucyl aminopeptidase activity in Plasmodium falciparum 3D7 at 10 uM using Leu-AMC as a substrate by spectrophotometer
Entry flag: satisfied if inhibition reaches 10%; not satisfied if it does not.

Illustrative cases are given below, each with its answer.
- molecule: "N[C@@H](C1CCCCC1)P(=O)(O)O"
  label: "satisfied"
- molecule: "NC(c1cccc(O)c1)P(=O)(O)O (racemic)"
  label: "not satisfied"
- molecule: "CC(C)C[C@@H](N)P(=O)(O)O"
  label: "not satisfied"
- molecule: "CC(CCNC(=O)C(N)Cc1ccccc1)P(=O)(O)O (stereo not given)"
  label: "not satisfied"
- molecule: "CC(C)C[C@H](N)[C@@H](N)P(=O)(O)O"
  label: "not satisfied"
- molecule: "CCC(C)C(N)C(O)P(=O)(O)O (stereo not given)"
  label: "not satisfied"

Ask: Does inhibition meet or surpass 10% for CCCCC(CC)C(N)P(=O)(O)O (stereo in doubt; D32) ?
Reply: not satisfied

Ask: Does inhibition meet or surpass 10% for NC(CCCCc1ccccc1)P(=O)(O)O (racemic) ?
Reply: satisfied

Ask: Does inhibition meet or surpass 10% for CC(C)C[C@H](NC(=O)[C@@H](O)[C@H](N)Cc1ccccc1)C(=O)O ?
Reply: satisfied

Ask: Does inhibition meet or surpass 10% for NC(c1ccc2ccccc2c1)C(O)P(=O)(O)O (stereo not given) ?
Reply: satisfied

Ask: Does inhibition meet or surpass 10% for NC(c1ccccc1)C(O)P(=O)(O)O (stereo not given) ?
Reply: not satisfied

###

# testedOn: UniProtKB Q8IL11
# Sequence (whole entry): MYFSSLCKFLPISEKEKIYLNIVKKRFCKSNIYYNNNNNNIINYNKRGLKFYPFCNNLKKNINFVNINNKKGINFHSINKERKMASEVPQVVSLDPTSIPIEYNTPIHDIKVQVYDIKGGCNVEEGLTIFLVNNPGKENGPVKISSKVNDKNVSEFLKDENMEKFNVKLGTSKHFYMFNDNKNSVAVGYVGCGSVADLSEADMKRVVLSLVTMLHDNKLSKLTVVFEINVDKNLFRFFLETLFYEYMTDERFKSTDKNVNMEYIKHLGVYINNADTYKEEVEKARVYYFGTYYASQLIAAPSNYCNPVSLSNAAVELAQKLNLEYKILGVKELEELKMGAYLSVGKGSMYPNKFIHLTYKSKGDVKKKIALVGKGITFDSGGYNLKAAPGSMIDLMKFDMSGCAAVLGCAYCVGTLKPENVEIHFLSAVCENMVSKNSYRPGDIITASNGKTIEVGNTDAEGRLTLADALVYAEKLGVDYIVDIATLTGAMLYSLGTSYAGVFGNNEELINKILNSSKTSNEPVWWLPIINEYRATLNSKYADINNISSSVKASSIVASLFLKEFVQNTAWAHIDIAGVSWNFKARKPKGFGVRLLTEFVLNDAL
# assayProcedure: Inhibition of leucyl aminopeptidase activity in Plasmodium falciparum 3D7 at 10 uM using Leu-AMC as a substrate by spectrophotometer
recordedEndpoint: inhibition (%)
API: value field is a number in %; no unit string.

Ask: Enter measured inhibition, system UniProtKB Q8IL11, for the compound shown: COc1ccc(C(N)P(=O)(O)O)cc1O (racemic)
Reply: 39

Ask: Enter measured inhibition, system UniProtKB Q8IL11, for the compound shown: CCCCC(CC)C(N)P(=O)(O)O (stereo in doubt; D33)
Reply: 11

Ask: Enter measured inhibition, system UniProtKB Q8IL11, for the compound shown: NC(CC1CCCC1)P(=O)(O)O (racemic)
Reply: 37

Ask: Enter measured inhibition, system UniProtKB Q8IL11, for the compound shown: CCC(C)C(N)P(=O)(O)O (stereo in doubt; D29)
Reply: 9

Ask: Enter measured inhibition, system UniProtKB Q8IL11, for the compound shown: NC(Cc1ccc(O)cc1)P(=O)(O)O (racemic)
Reply: 8

Ask: Enter measured inhibition, system UniProtKB Q8IL11, for the compound shown: NC(CCC1CCCCC1)P(=O)(O)O (racemic)
Reply: 94

Ask: Enter measured inhibition, system UniProtKB Q8IL11, for the compound shown: Cl.NC(Cc1ccccc1)C(=O)NCCC(O)P(=O)(O)O (centres undefined)
Reply: 9

Ask: Enter measured inhibition, system UniProtKB Q8IL11, for the compound shown: CCC(CC)[C@H](N)P(=O)(O)O
Reply: 10

Ask: Enter measured inhibition, system UniProtKB Q8IL11, for the compound shown: CCC(CC)[C@@H](N)P(=O)(O)O
Reply: 6
